# system name: human recombinant 5-HT2c receptor (Homo sapiens, UniProt P28335)
# Construct: expressed in transfected cells; host or cells: CHO K1 (Chinese hamster ovary), stably transfected
# Sequence (P28335 33-458): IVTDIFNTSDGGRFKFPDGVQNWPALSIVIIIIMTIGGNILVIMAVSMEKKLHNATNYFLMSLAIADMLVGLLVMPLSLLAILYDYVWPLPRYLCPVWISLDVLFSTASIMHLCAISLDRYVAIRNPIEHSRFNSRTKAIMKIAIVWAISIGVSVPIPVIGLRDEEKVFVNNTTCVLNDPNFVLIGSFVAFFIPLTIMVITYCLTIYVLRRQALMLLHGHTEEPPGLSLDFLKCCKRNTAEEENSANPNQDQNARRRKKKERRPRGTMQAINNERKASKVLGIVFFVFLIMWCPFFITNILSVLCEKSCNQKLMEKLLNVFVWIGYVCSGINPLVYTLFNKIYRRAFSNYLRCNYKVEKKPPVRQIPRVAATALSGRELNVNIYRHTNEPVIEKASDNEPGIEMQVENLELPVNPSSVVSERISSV
# test name: FLIPR fluorescent Ca2+ mobilisation agonist assay in CHO K1 cells (Method 1)
# Type: cell-based
# condition: CHO-K1, efficacy, percentage of mean maximal response to 10 μM 5-HT
Structures can show the parent of a compound that is named as a salt.
readout type: Emax (%)
The reply should be a number in %, with the unit left off.

# Emax lookup, item CO[C@H]1CCN(c2nc(Cc3ccccc3)nc3c2CCNCC3)C1 [Example 26, hydrochloride] 60.9

Data request, read-out Emax, for COc1nc(C(F)(F)c2ccccc2)nc2c1CCNCC2 [Example 72] 41.1

May I ask what Emax has been recorded for CC(C)(C)OCCOc1nc(Cc2ccccc2)nc2c1CCNCC2 [Example 81] ? 60.3

Sourced from patent US7928099B2
